# METHOD: Oral bioavailability in Sprague-Dawley rat at 5 mg/kg
# Assay type: ADME, organism-based
# MEASUREMENT_CONDITIONS: in vivo
REPORTED_PROPERTY: bioavailability (%)

molecule_smiles=O=C(Nc1nc(-c2ccc(F)c(C(F)(F)F)c2)ns1)c1cnc(N2CCC(C(=O)O)CC2)c(Cl)c1 reported_property=bioavailability value_unit=% measured_value=73.5
molecule_smiles=O=C(Nc1nc(-c2ccc(F)c(C(F)(F)F)c2)c(F)s1)c1cnc(N2CCC(C(=O)O)CC2)c(Cl)c1 reported_property=bioavailability value_unit=% measured_value=73
molecule_smiles=O=C(Nc1nc(-c2ccc(F)c(C(F)(F)F)c2)cs1)c1cnc(N2CCC(C(=O)O)CC2)c(Cl)c1 reported_property=bioavailability value_unit=% measured_value=66.8
